- targetOfAssay: human TLR8 (Homo sapiens, UniProt Q9NR97)
- Construct: expressed in transfected cells; host or cells: HEK-Blue Null1 cells, lentiviral infection
- Sequence (Q9NR97 27-1041): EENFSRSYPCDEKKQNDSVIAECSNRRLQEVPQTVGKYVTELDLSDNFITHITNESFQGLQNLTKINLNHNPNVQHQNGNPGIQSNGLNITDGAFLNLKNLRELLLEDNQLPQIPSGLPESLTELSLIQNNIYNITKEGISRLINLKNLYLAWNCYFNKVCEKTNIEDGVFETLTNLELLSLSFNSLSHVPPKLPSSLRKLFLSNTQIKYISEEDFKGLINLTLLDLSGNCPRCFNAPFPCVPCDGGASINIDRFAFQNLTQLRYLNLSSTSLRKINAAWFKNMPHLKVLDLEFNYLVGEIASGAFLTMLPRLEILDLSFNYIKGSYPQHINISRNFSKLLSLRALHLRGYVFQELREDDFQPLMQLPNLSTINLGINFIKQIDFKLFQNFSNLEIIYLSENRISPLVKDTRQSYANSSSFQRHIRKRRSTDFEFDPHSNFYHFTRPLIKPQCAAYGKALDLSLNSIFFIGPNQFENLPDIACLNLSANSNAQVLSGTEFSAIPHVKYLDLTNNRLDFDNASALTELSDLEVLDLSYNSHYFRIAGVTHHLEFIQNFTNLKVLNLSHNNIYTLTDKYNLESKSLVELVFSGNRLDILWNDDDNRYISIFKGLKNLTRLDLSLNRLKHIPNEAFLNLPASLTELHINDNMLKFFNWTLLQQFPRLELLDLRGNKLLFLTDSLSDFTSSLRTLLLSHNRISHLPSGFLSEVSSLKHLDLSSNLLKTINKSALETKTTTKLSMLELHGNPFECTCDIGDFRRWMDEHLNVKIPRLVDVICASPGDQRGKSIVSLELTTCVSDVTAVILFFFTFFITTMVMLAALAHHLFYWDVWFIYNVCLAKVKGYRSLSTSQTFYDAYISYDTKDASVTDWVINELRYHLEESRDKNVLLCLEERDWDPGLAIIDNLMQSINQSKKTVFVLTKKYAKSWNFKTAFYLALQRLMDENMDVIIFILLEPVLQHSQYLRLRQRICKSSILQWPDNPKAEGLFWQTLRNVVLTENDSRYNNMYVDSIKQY
- protocolDetails: SEAP reporter assay in HEK-Blue TLR8 cells, R848-induced TLR8 signaling
- Type: cell-based
- particulars: pyrazolo[1,5-a]pyrimidine derivatives in HEK-Blue hTLR8 cells; ± SD, at least three biological replicates
measurementKind: pIC50
By convention, pIC50 is the negative base-10 log of a molar concentration.

Given the molecule "NC(=O)c1cnn2c(-c3ccccc3C(F)(F)F)ccnc12" , write its reported pIC50.
6.64

Given the molecule "NC(=O)c1cnn2c(-c3cccc(Cl)c3)ccnc12" , write its reported pIC50.
6.55

Given the molecule "NC(=O)c1cnn2c(-c3cc(C(F)(F)F)cc(C(F)(F)F)c3)ccnc12" , write its reported pIC50.
6.60

Given the molecule "CNC(=O)c1cnn2c(-c3cccc(C(F)(F)F)c3)ccnc12" , write its reported pIC50.
5.77

Given the molecule "NC(=O)c1cnn2c(-c3ccc(C(F)(F)F)cc3)ccnc12" , write its reported pIC50.
5.91

Given the molecule "NC(=O)c1cnn2c(-c3cccc([N+](=O)[O-])c3)ccnc12" , write its reported pIC50.
6.66

Given the molecule "CCOC(=O)c1cnn2c(-c3cccc(C(F)(F)F)c3)ccnc12" , write its reported pIC50.
6.68

Given the molecule "COc1ccccc1-c1ccnc2c(C(N)=O)cnn12" , write its reported pIC50.
5.64
